Recorded values, source patent US11999728B2.

# protocol description: Pharmacokinetic Determination (Mouse PK)
# Assay type: in vivo, female CD-1 mice
# condition description: female, CD-1, plasma, IV, 3.0 mg/kg

molecule	display unit	half-life
CCCN1CC(Oc2ccc([C@@H]3c4[nH]c5ccccc5c4C[C@@H](C)N3C34CC(C3)C4)cc2)C1	h	5.13
C[C@@H]1Cc2c([nH]c3ccccc23)[C@@H](c2c(F)cc(O[C@@H]3CCN(CCCF)C3)cc2F)N1C12CC(C1)C2 (single isomer, unassigned)	h	9.1
C[C@@H]1Cc2c([nH]c3ccccc23)[C@@H](c2c(F)cc(O[C@H]3CCN(CCCF)C3)cc2F)N1C12CC(C1)C2 (single isomer, unassigned)	h	9.1
C[C@@H]1Cc2c([nH]c3ccccc23)[C@@H](c2ccc(NC3CN(CCCF)C3)cc2F)N1C12CC(C1)C2	h	10
C[C@@H]1Cc2c([nH]c3ccccc23)[C@@H](c2ccc(N[C@@H]3CN(CCCF)C[C@H]3F)cc2)N1C12CC(C1)C2	h	7.29
C[C@@H]1Cc2c([nH]c3ccccc23)[C@@H](c2c(F)cc(NC3CN(CCCF)C3)cc2F)N1C12CC(C1)C2	h	18
C[C@@H]1Cc2c([nH]c3ccccc23)[C@@H](c2ccc(NC3CN(CCCF)C3)cc2)N1C12CC(C1)C2	h	11.5
C[C@@H]1Cc2c([nH]c3ccccc23)[C@@H](c2ccc(NC3CN(CCCF)C3)cn2)N1C12CC(C1)C2	h	8.78
C[C@@H]1Cc2c([nH]c3ccccc23)[C@@H](c2c(F)cc(N[C@H]3CCN(CCCF)C3)cc2F)N1C12CC(CO)(C1)C2 (single isomer, unassigned)	h	6.51
C[C@@H]1Cc2c([nH]c3ccccc23)[C@@H](c2cnc(NC3CN(CCCF)C3)cn2)N1C12CC(C1)C2	h	3.85

----------
# protocol description: Pharmacokinetic Determination (Mouse PK)
# Assay type: in vivo, female CD-1 mice
# condition description: female, CD-1, plasma, PO, 10.0 mg/kg
Lab note: class by half-life, see low = under 4 h, intermediate = from 4 h up to 9 h, high = 9 h and over

compound	label class
C[C@@H]1Cc2c([nH]c3ccccc23)[C@@H](c2ccc(O[C@H]3CCN(CCCF)C3)nc2)N1C12CC(C1)C2 (single isomer, unassigned)	low
C[C@@H]1Cc2c([nH]c3ccccc23)[C@@H](c2ccc(N[C@@H]3CN(CCCF)C[C@H]3F)cc2)N1C12CC(C1)C2	intermediate
C[C@@H]1Cc2c([nH]c3ccccc23)[C@@H](c2c(F)cc(N[C@H]3CCN(CCCF)C3)cc2F)N1C12CC(CO)(C1)C2 (single isomer, unassigned)	intermediate
C[C@@H]1Cc2c([nH]c3ccccc23)[C@@H](c2cnc(NC3CN(CCCF)C3)cn2)N1C12CC(C1)C2	low
C[C@@H]1Cc2c(ccc3[nH]ncc23)[C@@H](c2ccc(NC3CN(CCCF)C3)cn2)N1CC(F)(F)F [AZD9833, reference compound]	low
C[C@@H]1Cc2c([nH]c3ccccc23)[C@@H](c2ccc(NC3CN(CCCF)C3)cc2)N1C12CC(CO)(C1)C2 (single isomer, unassigned)	intermediate
C[C@@H]1Cc2c([nH]c3ccccc23)[C@@H](c2c(F)cc(NC3CN(CCCF)C3)cc2F)N1CC(F)(F)CO [GDC9545, reference compound]	intermediate
C[C@@H]1Cc2c([nH]c3ccccc23)[C@@H](c2c(F)cc(O[C@H]3CCN(CCCF)C3)cc2F)N1C12CC(C1)C2 (single isomer, unassigned)	high
C[C@@H]1Cc2c([nH]c3ccccc23)[C@@H](c2c(F)cc(N[C@H]3CCN(CCCF)C3)cc2F)N1C12CC(C1)C2	intermediate
C[C@@H]1Cc2c([nH]c3ccccc23)[C@@H](c2ccc(NC3CN(CCCF)C3)cn2)N1C12CC(C1)C2	intermediate
C[C@@H]1Cc2c([nH]c3ccccc23)[C@@H](c2c(F)cc(NC3CN(CCCF)C3)cc2F)N1C12CC(C1)C2	high
C[C@@H]1Cc2c([nH]c3ccccc23)[C@@H](c2ccc(NC3CN(CCCF)C3)nc2)N1C12CC(C1)C2	low
C[C@@H]1Cc2c([nH]c3ccccc23)[C@@H](c2c(F)cc(O[C@@H]3CCN(CCCF)C3)cc2F)N1C12CC(C1)C2 (single isomer, unassigned)	high
